Reference source for all entries: ChEMBL document CHEMBL1128196

assay-target: Melanocyte-stimulating hormone receptor (Homo sapiens)
Sequence (Q01726 whole entry): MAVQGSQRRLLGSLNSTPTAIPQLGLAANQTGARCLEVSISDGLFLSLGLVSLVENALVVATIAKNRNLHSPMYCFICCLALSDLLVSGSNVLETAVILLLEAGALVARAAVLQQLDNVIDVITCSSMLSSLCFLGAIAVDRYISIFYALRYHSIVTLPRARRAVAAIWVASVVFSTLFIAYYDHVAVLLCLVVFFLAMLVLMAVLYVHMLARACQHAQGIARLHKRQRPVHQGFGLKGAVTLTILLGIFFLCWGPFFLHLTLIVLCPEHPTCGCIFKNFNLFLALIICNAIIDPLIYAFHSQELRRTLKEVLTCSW
protocol-summary: Effective concentration against Melanocortin 1 receptor transfected into L-cells was determined by concentration of peptide for 50% maximal cAMP generation
experimental-readout: EC50 (nM)
Write it as a number; the unit nM goes unstated.

Query :: Would you kindly share the measured EC50 for CCCC[C@H](NC(C)=O)C(=O)N[C@H]1CC(=O)NCCCCC(C(N)=O)NC(=O)[C@@H]([C@@H](C)c2c[nH]c3ccccc23)NC(=O)[C@H](CCCN=C(N)N)NC(=O)C(Cc2ccccc2)NC(=O)[C@H](Cc2c[nH]cn2)NC1=O (single isomer, unassigned) ?
Result :: 1

Query :: Give its EC50 value. Item: `CCCC[C@H](NC(C)=O)C(=O)N[C@@H](CC(=O)O)C(=O)N[C@@H](Cc1c[nH]cn1)C(=O)N[C@@H](Cc1ccccc1)C(=O)N[C@@H](CCCN=C(N)N)C(=O)N[C@@H](C(=O)N[C@@H](CCCCN)C(N)=O)[C@H](C)c1c[nH]c2ccccc12`
Result :: 0.4

Query :: Query: EC50; subject: CCCC[C@H](NC(C)=O)C(=O)N[C@H]1CC(=O)NCCCCC(C(N)=O)NC(=O)C([C@H](C)c2c[nH]c3ccccc23)NC(=O)[C@H](CCCN=C(N)N)NC(=O)C(Cc2ccccc2)NC(=O)[C@H](Cc2c[nH]cn2)NC1=O (single isomer, unassigned)
Result :: 3

Query :: May I ask what EC50 has been recorded for CCCC[C@H](NC(C)=O)C(=O)N[C@H]1CC(=O)NCCCCC(C(N)=O)NC(=O)C([C@@H](C)c2c[nH]c3ccccc23)NC(=O)[C@H](CCCN=C(N)N)NC(=O)C(Cc2ccccc2)NC(=O)[C@H](Cc2c[nH]cn2)NC1=O (single isomer, unassigned) ?
Result :: 0.3
